- METHOD: qHTS Assay for Inhibitors of the ERK Signaling Pathway using a Homogeneous Screening Assay; note: nearly all actives have a fitted effect of over 55% in size; note: potency is the fitted concentration of half-maximal effect
- MEASUREMENT CONDITIONS: HEK293-V1b, vasopressin-stimulated pERK AlphaScreen; series mostly up to 57.5 µM
- Text: qHTS Assay for Inhibitors of the ERK Signaling Pathway using a Homogeneous Screening Assay NIH Chemical Genomics Center [NCGC] NIH Molecular Libraries Screening Centers Network [MLSCN] Assay Submitter (PI): Dr. Wei Zheng, NCGC/NIH […] (10) Detect the assay plate in an EnVision plate reader (PerkinElmer) using the AlphaScreen detection mode. […]
The campaign covered roughly 72,000 compounds. About 710 (0.99%) were called active. Inconclusive results (about 7%) are left out. The full list was thinned out, with actives kept by preference.
OBSERVABLE: Potency

| COMPOUND | OBSERVABLE | RESULT |
| --- | --- | --- |
| CC(C)=CCC/C(C)=C/CC/C(C)=C/CC/C(C)=C/CO | Potency | inactive |
| Cn1c(=O)[nH]c(=O)c2c1nc(Br)n2CCCCSc1nc2ccccc2o1 | Potency | 31.6 µM (active) |
| O=C1c2ccccc2C(Nc2ccc3c(c2)OCCO3)N1Cc1ccco1 (stereo not given) | Potency | 25.1 µM (active) |
| COC(=O)C1C(=O)c2c([nH]c(C(=O)OCCSC)c2C)CC1C (stereo not given) | Potency | inactive |
| CCCN1[C@H](C(=O)OC)C[C@@]2(O)[C@@H](O)[C@@H](O)[C@@H](O)C[C@@H]12 | Potency | inactive |
| O=C(NC1CCCCC1)C1c2ccccc2C(=O)N1Cc1ccco1 (stereo not given) | Potency | inactive |
| COc1ccc(CCC(=O)c2c(O)cc(OC3OC(CO)C(O)C(O)C3O[C@@H]3OC(C)C(O)C(O)C3O)cc2O)cc1O (stereo not given in full) | Potency | inactive |
| CCCCCn1c(SCCC(C)C)nc2c1c(=O)[nH]c(=O)n2C | Potency | inactive |
| COc1ccc(-c2nn3c(-c4ccccc4)nnc3s2)cc1OC | Potency | 7.94 µM (active) |
| CCCn1c(-c2ccc(F)cc2)nc2c(NCC3CCCN3CC)nc(C)nc21 (stereo not given) | Potency | inactive |
